biological target: KRAS WT (Homo sapiens, UniProt P01116+P62937); assay: Disruption of BRAF RBD interaction with Ras (FRET / MOA assay, with Cyclophilin A); assay type: biochemical; conditions: KRAS WT; read-out: KRAS WT FRET data IC50
Sequence (P01116 1-169 isoform P01116-2 limits assumed): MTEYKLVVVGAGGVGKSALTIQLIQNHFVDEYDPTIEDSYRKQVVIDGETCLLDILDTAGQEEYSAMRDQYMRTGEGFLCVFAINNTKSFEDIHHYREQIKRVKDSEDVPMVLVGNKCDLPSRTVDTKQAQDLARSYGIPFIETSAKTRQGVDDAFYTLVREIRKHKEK
Sequence (P62937 whole entry): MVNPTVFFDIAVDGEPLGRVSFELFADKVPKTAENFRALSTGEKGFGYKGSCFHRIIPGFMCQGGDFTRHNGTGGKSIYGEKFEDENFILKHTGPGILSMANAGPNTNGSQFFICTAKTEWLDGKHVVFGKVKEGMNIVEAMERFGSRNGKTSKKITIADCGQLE

Compound	IC50
CCn1c(-c2cccnc2[C@H](C)OC)c2c3cc(ccc31)-c1cc(O)cc(c1)C[C@H](NC(=O)[C@H](C(C)C)N(C)C(=O)[C@H]1C[C@@H]1O)C(=O)N1CCC[C@H](N1)C(=O)OCC(C)(C)C2 (single isomer, unassigned)	10 to 100 nM
C=CC(=O)N1CC[C@@H](N(C)C(=O)N(C)[C@H](C(=O)N[C@H]2Cc3nc(cs3)-c3ccc4c(c3)c(c(-c3cccnc3[C@H](C)OC)n4CC(F)(F)F)CC(C)(C)COC(=O)[C@@H]3CCCN(N3)C2=O)C(C)C)C1 (atropisomer, axis not shown)	100 to 1000 nM
C=CC(=O)N1CC[C@H](C(=O)N(C)[C@H](C(=O)N[C@H]2Cc3cc(O)cc(c3)-c3ccc4c(c3)c(c(-c3cc(C)cnc3[C@H](C)OC)n4CC)CC(C)(C)COC(=O)[C@@H]3CCCN(N3)C2=O)C(C)C)C1	1000 to 10000 nM
CCn1c(-c2cccnc2[C@H](C)OC)c2c3cc(ccc31)-c1cc(O)cc(c1)C[C@H](NC(=O)[C@H](C(C)C)N(C)C(=O)[C@H]1CCN(C(=O)C(C)(C)N(C)C)C1)C(=O)N1CCC[C@H](N1)C(=O)OCC(C)(C)C2 (atropisomer, axis not shown)	10 to 100 nM
CCn1c(-c2cnccc2COC)c2c3cc(ccc31)-c1cc(O)cc(c1)C[C@H](NC(=O)[C@H](C(C)C)N(C)C(=O)[C@@H]1CN(C(C)=O)C[C@@H]1C(F)(F)F)C(=O)N1CCC[C@H](N1)C(=O)OCC(C)(C)C2	100 to 1000 nM
CCn1c(-c2cccnc2[C@H](C)OC)c2c3cc(ccc31)-c1cc(O)cc(c1)C[C@H](NC(=O)[C@H](C(C)C)N(C)C(=O)[C@H]1CCCNC1)C(=O)N1CCC[C@H](N1)C(=O)OCC(C)(C)C2	10 to 100 nM
C=CC(=O)N1CC[C@H](C(=O)N(C)[C@H](C(=O)N[C@H]2Cc3cc(O)cc(c3)-c3ccc4c(c3)c(c(-c3cncnc3)n4CC)CC(C)(C)COC(=O)[C@@H]3CCCN(N3)C2=O)C(C)C)C1	1000 to 10000 nM
CCn1c(-c2cccnc2[C@H](C)OC)c2c3cc(ccc31)-c1csc(n1)C[C@H](NC(=O)[C@H](C(C)C)N(C)C(=O)N1CCN(C(=O)CO)CC1)C(=O)N1CCC[C@H](N1)C(=O)OCC(C)(C)C2 (atropisomer, axis not shown)	10 to 100 nM
CCn1c(-c2cccnc2[C@H](C)OC)c2c3cc(ccc31)-c1csc(n1)C[C@H](NC(=O)[C@H](C(C)C)N(C)C(=O)N1C[C@H]3CN(C)C[C@H]3C1)C(=O)N1CCC[C@H](N1)C(=O)OCC(C)(C)C2	100 to 1000 nM
CCn1c(-c2cccnc2[C@H](C)OC)c2c3cc(ccc31)-c1csc(n1)C[C@H](NC(=O)[C@H](C(C)C)N(C)C(=O)N1CC[C@@H](N(C)C)C1)C(=O)N1CCC[C@H](N1)C(=O)OCC(C)(C)C2 (atropisomer, axis not shown)	100 to 1000 nM
CCn1c(-c2cccnc2[C@H](C)OC)c2c3cc(ccc31)-c1csc(n1)C[C@H](NC(=O)[C@@H]1CCCO1)C(=O)N1CCC[C@H](N1)C(=O)OCC(C)(C)C2	100 to 1000 nM
C=CC(=O)N1C[C@@H](C(=O)N(C)[C@H](C(=O)N[C@H]2Cc3cccc(c3)-c3ccc4c(c3)c(c(-c3cccnc3[C@H](C)OC)n4CC)CC(C)(C)COC(=O)[C@@H]3CCCN(N3)C2=O)C(C)C)[C@@H](C(F)(F)F)C1	1000 to 10000 nM
CCn1c(-c2cc(N3CCN(C)CC3)cnc2[C@H](C)OC)c2c3cc(ccc31)-c1csc(n1)C[C@H](NC(=O)[C@H](C(C)C)N(C)C(=O)[C@@H]1OCC[C@@H]1c1ccccc1)C(=O)N1CCC[C@H](N1)C(=O)OCC(C)(C)C2 (atropisomer, axis not shown)	100 to 1000 nM
CCn1c(-c2cccnc2[C@H](C)OC)c2c3cc(ccc31)-c1csc(n1)C[C@H](NC(=O)[C@H](C(C)C)N(C)C(=O)N(C)C1CN(C(=O)/C=C/C(C)(C)O)C1)C(=O)N1CCC[C@H](N1)C(=O)OCC(C)(C)C2 (atropisomer, axis not shown)	100 to 1000 nM
CCn1c(-c2cnccc2COC)c2c3cc(ccc31)-c1cc(O)cc(c1)C[C@H](NC(=O)[C@H](C(C)C)N(C)C(=O)CN1CCOCC1)C(=O)N1CCC[C@H](N1)C(=O)OCC(C)(C)C2	100 to 1000 nM
CCn1c(-c2cccnc2[C@H](C)OC)c2c3cc(ccc31)-c1cc(O)cc(c1)C[C@H](NC(=O)[C@H](C(C)C)N(C)C(=O)C13CNCC1C3)C(=O)N1CCC[C@H](N1)C(=O)OCC(C)(C)C2 (stereo partly shown)	10 to 100 nM

* * *

molecular target: KRAS G12V (Homo sapiens, UniProt P01116+P62937, G12V); experiment: Ras-Raf disruption / FRET / MOA assay (BRAF RBD); type: biochemical; conditions: Ras-Raf disruption, with Cyclophilin A; read-out: KRAS G12V FRET data IC50
Sequence (P01116 1-169 isoform P01116-2 G12V limits assumed): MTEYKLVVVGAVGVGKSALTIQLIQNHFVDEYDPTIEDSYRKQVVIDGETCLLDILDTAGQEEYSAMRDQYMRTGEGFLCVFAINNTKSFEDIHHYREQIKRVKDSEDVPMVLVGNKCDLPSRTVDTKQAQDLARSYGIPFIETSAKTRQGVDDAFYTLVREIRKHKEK
Sequence (P62937 whole entry): as the sequence (P62937 whole entry) above

Compound	IC50
CCn1c(-c2cccnc2[C@H](C)OC)c2c3cc(ccc31)-c1csc(n1)C[C@H](NC(=O)[C@H](C(C)C)N(C)C(=O)N1CC[C@H](N(C)C(=O)[C@@H]3CN3)C1)C(=O)N1CCC[C@H](N1)C(=O)OCC(C)(C)C2 (atropisomer, axis not shown)	100 to 1000 nM
CCn1c(-c2cccnc2[C@H](C)OC)c2c3cc(ccc31)-c1csc(n1)C[C@H](NC(=O)[C@H](C(C)C)N(C)C(=O)N1CCCN(C(=O)[C@@H]3CN3)CC1)C(=O)N1CCC[C@H](N1)C(=O)OCC(C)(C)C2 (atropisomer, axis not shown)	100 to 1000 nM

* * *

target: NRAS G12C (Homo sapiens, UniProt P01111+P62937, G12C); test: Disruption of BRAF RBD interaction with Ras (FRET / MOA assay, with Cyclophilin A); format: biochemical; conditions: NRAS G12C; read-out: NRAS G12C FRET data IC50
Sequence (P01111 whole entry G12C, one chain of several): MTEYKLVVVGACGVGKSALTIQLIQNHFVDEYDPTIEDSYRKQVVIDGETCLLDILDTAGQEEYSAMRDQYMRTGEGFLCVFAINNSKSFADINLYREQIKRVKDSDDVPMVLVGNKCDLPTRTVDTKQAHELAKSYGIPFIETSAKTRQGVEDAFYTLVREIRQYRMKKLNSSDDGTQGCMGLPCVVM
pIC50: −log10 of the molar value.
# maps each entry to its pIC50

Compound	pIC50
CCn1c(-c2cccnc2[C@H](C)OC)c2c3cc(ccc31)-c1csc(n1)C[C@H](NC(=O)[C@H](C(C)C)N(C)C(=O)N1C[C@@H]3CN(C(=O)C#CC(C)(C)N(C)C)CC[C@@H]31)C(=O)N1CCCC(N1)C(=O)OCC(C)(C)C2 (stereo partly shown) [Example A625]	6.00 to 7.00
CCn1c(-c2cccnc2[C@H](C)OC)c2c3cc(ccc31)-c1cc(O)cc(c1)C[C@H](NC(=O)[C@H](C(C)C)N(C)C(=O)c1nc(NC(=O)/C=C/CN(C)C)cs1)C(=O)N1CCC[C@H](N1)C(=O)OCC(C)(C)C2 [Example A258]	6.00 to 7.00
CCn1c(-c2cc(C3CCN(C)CC3)cnc2[C@H](C)OC)c2c3cc(ccc31)-c1csc(n1)C[C@H](NC(=O)[C@H](C(C)C)N(C)C(=O)N(C)C)C(=O)N1CCC[C@H](N1)C(=O)OCC(C)(C)C2 (atropisomer, axis not shown) [Example A484]	7.00 to 8.00
CCn1c(-c2cccnc2[C@H](C)OC)c2c3cc(ccc31)N1CCC[C@@H](C[C@H](NC(=O)[C@H](C(C)C)N(C)C(=O)C3CCN(C(=O)C#CC(C)(C)N4CCC4)C3)C(=O)N3CCCC(N3)C(=O)OCC(C)(C)C2)C1 (stereo partly shown) [Example A617]	7.00 to 8.00

* * *

pIC50 for assorted compounds
target: NRAS Q61R (Homo sapiens, UniProt P01111+P62937, Q61R); assay: Disruption of BRAF RBD interaction with Ras (FRET / MOA assay, with Cyclophilin A); assay type: biochemical; details: NRAS Q61R; read-out: NRAS Q61R FRET data IC50
Sequence (P01111 whole entry Q61R): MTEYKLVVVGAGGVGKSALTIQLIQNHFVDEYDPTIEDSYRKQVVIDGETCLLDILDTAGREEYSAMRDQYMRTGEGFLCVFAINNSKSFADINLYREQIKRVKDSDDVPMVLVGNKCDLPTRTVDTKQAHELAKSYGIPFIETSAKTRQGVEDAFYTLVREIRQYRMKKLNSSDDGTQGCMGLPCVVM
Sequence (P62937 whole entry): as the sequence (P62937 whole entry) above
pIC50: −log10 of the molar value.

Compound	pIC50
CCn1c(-c2cccnc2[C@H](C)OC)c2c3cc(ccc31)-c1csc(n1)C[C@H](NC(=O)[C@H](C(C)C)N(C)C(=O)N1CC(C#N)C1)C(=O)N1CCC[C@H](N1)C(=O)OCC(C)(C)C2 (atropisomer, axis not shown)	6.00 to 7.00
C=CC(=O)N1CC[C@H](C(=O)N(C)[C@H](C(=O)N[C@H]2Cc3cc(O)cc(c3)-c3ccc4c(c3)c(c(-c3cnccc3C)n4CC)CC(C)(C)COC(=O)[C@@H]3CCCN(N3)C2=O)C(C)C)C1	5.00 to 6.00
C=CC(=O)N1CC[C@H](C(=O)N(C)[C@@H](CC(F)(F)F)C(=O)N[C@H]2Cc3cccc(c3)-c3ccc4c(c3)c(c(-c3cccnc3[C@H](C)OC)n4CC)CC(C)(C)COC(=O)C3CCCN(N3)C2=O)C1 (stereo partly shown)	5.00 to 6.00
C=CC(=O)N1CC[C@@H](N(C)C(=O)N(C)[C@H](C(=O)N[C@H]2Cc3nc(cs3)-c3ccc4c(c3)c(c(-c3cccnc3[C@H](C)OC)n4CC(F)(F)F)CC(C)(C)COC(=O)[C@@H]3CCCN(N3)C2=O)C(C)C)C1 (atropisomer, axis not shown)	6.00 to 7.00
